- TARGET DESC: HLA-A0206 (Homo sapiens, UniProt P04439, D140Y/D185E/D98H/E176V/E277Q/F33Y/G131W/G231S/I119V/I121R/I166T/I218V/L300P/L318F/N151K/N90K/P208A/P217A/Q86G/Q94H/R138H/R169H/T345S)
- Construct: expressed in transfected cells; host or cells: HMy2.CIR
- METHOD: cell-based
- Type: binding
- COND: HLA-A0206 HMy2.CIR cells; competitor peptide 15μM; 24 hours; flow cytometry; read-out: 15μM Inhibition (%)
- Description: HMy2.CIR cell line was purchased (Zhongqiao xinzhou Biotech, Shanghai) and maintained in complete IMDM medium with 10% FCS and 1% penicillin/streptomycin. […] The plate was centrifuged at 600 rpm for 5 min at room temperature (RT). […] Finally, cells were resuspended with 150 μL PBS and analyzed with flow cytometry. […] Binding affinity of unlabeled peptide with the indicated HLA-A molecule is assessed by IC50.
Residues, ends and D or L forms follow the SMILES beside them.

{"columns": ["COMPOUND", "inhibition at 15 µM [%]"],
 "data": [
  ["CC[C@H](C)[C@H](NC(=O)[C@H](CC(C)C)NC(=O)[C@H](CS)NC(=O)[C@H](CC(C)C)NC(=O)[C@H](Cc1c[nH]cn1)NC(=O)[C@H](Cc1ccccc1)NC(=O)[C@H](CC(C)C)NC(=O)[C@H](CCC(N)=O)NC(=O)[C@@H](N)CCSC)C(=O)O [Epitope P66] (H-MQLFHLCLI-OH; N-terminus and C-terminus assumed)", 51.6],
  ["CC(C)C[C@H](NC(=O)[C@H](CO)NC(=O)[C@H](CC(C)C)NC(=O)[C@@H](N)Cc1c[nH]c2ccccc12)C(=O)N[C@@H](CC(C)C)C(=O)N[C@H](C(=O)N1CCC[C@H]1C(=O)N[C@@H](Cc1ccccc1)C(=O)N[C@H](C(=O)O)C(C)C)C(C)C [Epitope P7]", 96.2]
]}

---

- TARGET DESC: HLA-A3101 (Homo sapiens, UniProt P04439, A270S/D185E/E176V/E277Q/F33T/G231S/G80R/H175R/I121M/I218V/I322F/K168Q/L300P/L318F/M331R/P217A/Q94H/R138Q/T323A/T345S/T97I/V358M)
- METHOD: Peptide competitive binding assay, transfected HMy2.CIR cells, reference ATFQFK(FITC)VER
- COND: HLA-A3101 HMy2.CIR cells; competitor peptide 15μM; 24 hours; flow cytometry
Residues, ends and D or L forms follow the SMILES beside them.
The following molecules are shown together with reported inhibition at 15 µM values.

{"columns": ["MOLECULE", "inhibition at 15 µM, %"],
 "data": [
  ["CC(C)C[C@H](NC(=O)[C@H](CCCCN)NC(=O)[C@H](Cc1c[nH]cn1)NC(=O)[C@H](CCCNC(=N)N)NC(=O)[C@H](CS)NC(=O)CNC(=O)CNC(=O)[C@H](CC(C)C)NC(=O)[C@@H](N)C(C)C)C(=O)O [Epitope P36] (H-VLGGCRHKL-OH; N-terminus and C-terminus assumed)", 5.7],
  ["CC[C@H](C)[C@H](NC(=O)[C@H](CO)NC(=O)[C@H](CO)NC(=O)[C@@H](NC(=O)[C@@H]1CCCN1C(=O)[C@@H](N)CO)[C@@H](C)CC)C(=O)N[C@@H](Cc1ccccc1)C(=O)N[C@@H](CO)C(=O)N[C@@H](CCCNC(=N)N)C(=O)O [Epitope P38] (H-SPISSIFSR-OH; N-terminus and C-terminus assumed)", 4.49],
  ["CC(C)C[C@H](NC(=O)[C@H](CO)NC(=O)[C@H](Cc1ccccc1)NC(=O)[C@H](Cc1ccccc1)NC(=O)CNC(=O)[C@H](C)NC(=O)[C@@H](N)CCC(N)=O)C(=O)N[C@H](C(=O)N[C@@H](CCCCN)C(=O)O)[C@@H](C)O [Epitope P40] (H-QAGFFSLTK-OH; N-terminus and C-terminus assumed)", 5.48],
  ["CC(C)C[C@H](NC(=O)[C@@H](NC(=O)[C@H](Cc1ccccc1)NC(=O)[C@@H](NC(=O)[C@@H](N)CCCCN)C(C)C)C(C)C)C(=O)NCC(=O)NCC(=O)N[C@@H](CS)C(=O)N[C@@H](CCCNC(=N)N)C(=O)O [Epitope P63]", 55.4]
]}
